Cited source for all entries: patent US20250059285A1

In this section, each of the binders is paired with its reported koff.
target: T1, human Gal10-His (human, UniProt Q05315 2-142, limits assumed)
T1 construct: also called hGal10-His; human Gal10-His tagged; not shown: His tag
T1 sequence: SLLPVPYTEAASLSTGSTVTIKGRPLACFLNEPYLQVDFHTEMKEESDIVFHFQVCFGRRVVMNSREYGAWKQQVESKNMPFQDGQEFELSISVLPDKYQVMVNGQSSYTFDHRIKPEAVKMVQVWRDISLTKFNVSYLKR
experiment: SPR Biacore 3000, hFab on human Gal10-His captured by anti-His CM5
Protocol: The binding properties of the selected clones to human and cynomolgus Gal10 was analyzed via a capture method established on a Biacore 3000 instrument. For this purpose, two approaches were used. In the first, two concentrations of the selected clones were applied on cynomolgus (WGS isoform) Gal10-His capture on a CM5 chip coated with a monoclonal anti-His antibody. The second approach involved a serial dilution that was applied on human or cynomolgus (WGS isoform) Gal10-His in the same set-up.
Report the figure in s⁻¹ without appending any unit label.

Some entries whose results are on file:
g24F02_N53A (human Fab) (Fab, V domains shown, Human Fab backbone: human CH1 and human lambda constant domain (pUPEX vectors); also called g24F02_N53A_2W) VH: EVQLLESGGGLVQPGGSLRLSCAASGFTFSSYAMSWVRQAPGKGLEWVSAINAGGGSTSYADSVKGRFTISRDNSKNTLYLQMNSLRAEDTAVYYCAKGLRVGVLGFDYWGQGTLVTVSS VL: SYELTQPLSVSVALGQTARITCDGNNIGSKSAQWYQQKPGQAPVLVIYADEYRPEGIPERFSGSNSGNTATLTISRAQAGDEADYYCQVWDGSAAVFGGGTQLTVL | 0.0018
g24F02 (human Fab) (Fab, V domains shown, Human Fab backbone (human CH1, human lambda CL); also called germlined 24F02) VH: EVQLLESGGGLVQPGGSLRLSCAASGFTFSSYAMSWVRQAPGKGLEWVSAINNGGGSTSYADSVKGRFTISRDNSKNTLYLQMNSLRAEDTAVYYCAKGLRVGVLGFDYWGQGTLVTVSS VL: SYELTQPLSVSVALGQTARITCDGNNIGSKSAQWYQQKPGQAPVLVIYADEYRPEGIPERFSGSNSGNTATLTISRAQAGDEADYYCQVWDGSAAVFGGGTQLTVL | 0.0016
g7B07_N53A (human Fab) (Fab, V domains shown, VH assembled by inference as for g7B07; Human Fab backbone; also called g7B07_N53A (mean)) VH: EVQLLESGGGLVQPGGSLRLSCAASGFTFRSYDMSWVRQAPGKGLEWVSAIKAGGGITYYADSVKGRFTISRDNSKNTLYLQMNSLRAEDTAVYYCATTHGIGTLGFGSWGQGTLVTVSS VL: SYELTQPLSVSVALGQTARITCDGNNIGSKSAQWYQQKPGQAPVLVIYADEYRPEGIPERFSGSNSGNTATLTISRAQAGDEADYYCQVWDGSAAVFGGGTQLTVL | 0.079
g7B07 (human Fab) (Fab, V domains shown, Human Fab backbone; their format is not certain; also called g7B07-hFab; germlined 7B07) VH: EVQLLESGGGLVQPGGSLRLSCAASGFTFRSYDMSWVRQAPGKGLEWVSAIKNGGGITYYADSVKGRFTISRDNSKNTLYLQMNSLRAEDTAVYYCATTHGIGTLGFGSWGQGTLVTVSS VL: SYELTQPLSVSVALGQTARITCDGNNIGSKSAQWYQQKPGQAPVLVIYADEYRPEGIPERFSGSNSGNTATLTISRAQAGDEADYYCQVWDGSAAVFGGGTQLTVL | 0.006

Recorded koff for g23H09 (Fab) (Fab, V domains shown, same VH/VL) VH: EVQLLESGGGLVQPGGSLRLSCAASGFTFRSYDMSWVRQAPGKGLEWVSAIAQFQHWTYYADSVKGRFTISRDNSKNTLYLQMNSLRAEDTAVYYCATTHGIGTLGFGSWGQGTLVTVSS VL: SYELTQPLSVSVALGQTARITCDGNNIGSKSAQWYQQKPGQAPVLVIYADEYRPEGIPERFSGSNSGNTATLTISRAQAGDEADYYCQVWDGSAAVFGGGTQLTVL , please?
0.0031
